molecular target: human GABAA α1β3γ2 receptor (Homo sapiens (Human), UniProt P14867+P18507); test: Radioligand binding assay, competition for [3H]Flumazenil, γ2-containing GABAA subtypes; conditions: Log[Ki α1β3γ2 (nM)/Ki α2β2γ1 (nM)], Table 3
molecules and their reported LogSel
Property Label: LogSel

Molecule: Clc1ccc2c(c1)C(c1ccccc1)=NCc1nncn1-2 [Estazolam, reference compound]
Property Label: LogSel
Result Number: −2.0

Molecule: Cc1ncc2n1-c1ccc(Cl)cc1C(c1ccccc1F)=NC2 [Midazolam, reference compound]
Property Label: LogSel
Result Number: −2.2

Molecule: Cc1nnc2n1-c1sc3c(c1C(c1c(F)cccc1F)=N[C@H]2C)COCCC3
Property Label: LogSel
Result Number: 2.0

Molecule: Cc1nnc2n1-c1ccc(Cl)cc1C(c1ccccc1Cl)=NC2 [Triazolam, reference compound]
Property Label: LogSel
Result Number: −1.5

Molecule: Cc1nnc2n1-c1ccc(Cl)cc1C(c1ccccc1)=NC2 [Alprazolam, reference compound]
Property Label: LogSel
Result Number: −2.3

Molecule: Cc1nnc2n1-c1sc3c(c1C(c1c(F)cccc1F)=NC2)CCCCC3
Property Label: LogSel
Result Number: 1.7

Molecule: Cc1nnc2n1-c1sc3c(c1C(c1c(F)cccc1F)=N[C@H]2C)COCCO3
Property Label: LogSel
Result Number: 1.8

----------
Molecular target: human GABAA α1β3γ2 receptor (Homo sapiens (Human), UniProt P14867+P18507)
Assay: Radioligand binding assay, competition for [3H]Flumazenil, γ2-containing GABAA subtypes
Conditions: Ki α1β3γ2 (nM)/Ki α2β2γ1 (nM), Table 1
Method: The affinity of compounds at GABAA γ2 subunit-containing receptors was measured by competition for [^3H]Flumazenil (81.1 Ci/mmol; Roche) binding to HEK293F cells expressing human (transiently transfected) receptors of composition α1β3γ2. Harvested pellets from HEK293F cells expressing the different GABAA γ2 receptor subtypes were resuspended in Mannitol Buffer pH 7,2-7,4 and processed as described above for the cells expressing the GABAA γ1 subunit-containing receptors. […]

Molecule: C[C@@H]1N=C(c2c(F)cccc2F)c2c(sc3c2COC[C@H](C)O3)-n2nc(C(=O)N3CC(OC(C)(C)C)C3)nc21
Tested Target: human GABAA α1β3γ2 receptor (Homo sapiens (Human), UniProt P14867+P18507)
γ2/γ1 Selectivity Ratio: 188.2
//
Molecule: C[C@@H]1N=C(c2c(F)cccc2F)c2c(sc3c2CCCCC3)-n2ccc(=O)nc21
Tested Target: human GABAA α1β3γ2 receptor (Homo sapiens (Human), UniProt P14867+P18507)
γ2/γ1 Selectivity Ratio: 205.1
//
Molecule: [2H]C1([2H])OCc2c(sc3c2C(c2c(F)cccc2F)=N[C@@H](C)c2nc(C(=O)NCC)nn2-3)OC1([2H])[2H]
Tested Target: human GABAA α1β3γ2 receptor (Homo sapiens (Human), UniProt P14867+P18507)
γ2/γ1 Selectivity Ratio: 224.3
//
Molecule: C[C@@H]1N=C(c2c(F)cccc2F)c2c(sc3c2COCCO3)-n2nc(C(=O)NC[C@@](C)(O)C(F)(F)F)nc21
Tested Target: human GABAA α1β3γ2 receptor (Homo sapiens (Human), UniProt P14867+P18507)
γ2/γ1 Selectivity Ratio: 284.3
//
Molecule: Cc1nnc2n1-c1sc3c(c1C(c1c(F)cccc1F)=N[C@H]2C)COCCO3
Tested Target: human GABAA α1β3γ2 receptor (Homo sapiens (Human), UniProt P14867+P18507)
γ2/γ1 Selectivity Ratio: 67.2
//
Molecule: Cc1nnc2n1-c1sc3c(c1C(c1c(F)cccc1F)=N[C@H]2C)CCCC(F)(F)C3
Tested Target: human GABAA α1β3γ2 receptor (Homo sapiens (Human), UniProt P14867+P18507)
γ2/γ1 Selectivity Ratio: 53.8
//
Molecule: Cc1nnc2n1-c1sc3c(c1C(c1c(F)cccc1F)=N[C@H]2C)CCCC[C@@H]3F (single isomer, unassigned)
Tested Target: human GABAA α1β3γ2 receptor (Homo sapiens (Human), UniProt P14867+P18507)
γ2/γ1 Selectivity Ratio: 29.9

----------
target: human GABAA α2β2γ1 receptor (Homo sapiens (Human), UniProt P47869+Q8N1C3); assay: Radioligand binding assay, competition for [3H]RO7239181, γ1-containing GABAA subtypes; conditions: Ki h-GABAA α2β2γ1, membranes of HEK293F cells, [3H]RO7239181 20-30 nM, Table 1
With a cut-off of 20 nM, any Ki strictly below it is called YES; any Ki meeting it or above is called NO.

Record Smiles: CCNC(=O)c1nc2n(n1)-c1sc3c(c1C(c1c(F)cccc1F)=N[C@H]2C)COCCO3
Category Label: NO
--
Record Smiles: C[C@@H]1N=C(c2c(F)cccc2F)c2c(sc3c2COCCO3)-n2cc(C(=O)NCC3(O)CC3)nc21
Category Label: NO
--
Record Smiles: C[C@@H]1N=C(c2c(F)cccc2F)c2c(sc3c2CCCCC3)-n2ccc(=O)nc21
Category Label: NO
--
Record Smiles: [2H]C1([2H])OCc2c(sc3c2C(c2c(F)cccc2F)=N[C@@H](C)c2nc(C(=O)NCC)nn2-3)OC1([2H])[2H]
Category Label: YES
--
Record Smiles: C[C@@H]1N=C(c2c(F)cccc2F)c2c(sc3c2COCCO3)-n2c(C(F)F)nnc21
Category Label: NO
--
Record Smiles: C[C@@H]1N=C(c2c(F)cccc2F)c2c(sc3c2COCCC3)-n2nc(C(=O)NCC(C)(C)O)nc21
Category Label: NO
--
Record Smiles: C[C@@H]1N=C(c2c(F)cccc2F)c2c(sc3c2COCCO3)-n2cc(C(=O)NCC(C)(C)O)nc21
Category Label: YES

----------
target: human GABAA α2β2γ1 receptor (Homo sapiens (Human), UniProt P47869+Q8N1C3); test: Radioligand binding assay, competition for [3H]RO7239181, γ1-containing GABAA subtypes; details: Ki h-GABAA α2β2γ1, membranes of HEK293F cells, [3H]RO7239181 20-30 nM, Table 2
pKi: −log10 of the molar value.
molecules and their reported pKi
Property Label: pKi

Molecule: Cc1nnc2n1-c1sc3c(c1C(c1c(F)cccc1F)=N[C@H]2C)COCC[C@@H]3F (single isomer, unassigned) [Example 55]
Result Number: 7.32

Molecule: C[C@@H]1N=C(c2c(F)cccc2F)c2c(sc3c2COCCC3)-n2nc(C(=O)NCC3(O)CC3)nc21 [Example 62]
Result Number: 7.61

Molecule: C[C@@H]1N=C(c2c(F)cccc2F)c2c(sc3c2COCCC3)-n2nc(C(=O)NCC(C)(C)O)nc21 [Example 71]
Result Number: 7.10

Molecule: Cc1nnc2n1-c1sc3c(c1C(c1c(F)cccc1F)=N[C@H]2C)CCCCO3 [Example 19]
Result Number: 7.77

Molecule: C[C@@H]1N=C(c2c(F)cccc2F)c2c(sc3c2COCCC3)-n2cc(C(=O)NCCO)nc21 [Example 66]
Result Number: 7.83

Molecule: C[C@@H]1N=C(c2c(F)cccc2F)c2c(sc3c2COC[C@H](C)O3)-n2nc(C(=O)NCCO)nc21 [Example 53]
Result Number: 7.02

Molecule: CCOC1CN(C(=O)c2nc3n(n2)-c2sc4c(c2C(c2c(F)cccc2F)=N[C@H]3C)COCCO4)C1 [Example 31]
Result Number: 8.25

Molecule: C[C@@H]1N=C(c2c(F)cccc2F)c2c(sc3c2CCCCC3)-n2ccc(=O)nc21 [Example 7]
Result Number: 7.43

Molecule: Cc1nnc2n1-c1sc3c(c1C(c1c(F)cccc1F)=N[C@H]2C)CCCCC3O (mixture of isomers) [Example 9]
Result Number: 7.84

Molecule: [2H]C1([2H])OCc2c(sc3c2C(c2c(F)cccc2F)=N[C@@H](C)c2nc(C(=O)N4CCC4)nn2-3)OC1([2H])[2H] [Example 23]
Result Number: 8.20

Molecule: Cc1nnc2n1-c1sc3c(c1C(c1c(F)cccc1F)=N[C@H]2C)CCCC(F)(F)C3 [Example 8]
Result Number: 7.29

Molecule: C[C@@H]1N=C(c2c(F)cccc2F)c2c(sc3c2COC[C@H](C)O3)-n2nc(C(=O)N3CC(OC(C)(C)C)C3)nc21 [Example 41]
Result Number: 7.19

Molecule: C[C@@H]1N=C(c2c(F)cccc2F)c2c(sc3c2COCCC3)-n2cc(C(=O)NCC(C)(C)O)nc21 [Example 67]
Result Number: 7.67

Molecule: Cc1nnc2n1-c1sc3c(c1C(c1c(F)cccc1Cl)=N[C@H]2C)COCCO3 [Example 35]
Result Number: 7.73

Molecule: C[C@@H]1N=C(c2c(F)cccc2F)c2c(sc3c2COCCO3)-n2nc(C(=O)NC3CC3)nc21 [Example 36]
Result Number: 7.25

Molecule: C[C@@H]1N=C(c2c(F)cccc2F)c2c(sc3c2COCCO3)-n2nc(C(=O)NCCF)nc21 [Example 25]
Result Number: 7.54

Molecule: C[C@@H]1N=C(c2c(F)cccc2F)c2c(sc3c2COCCO3)-n2c(C(F)F)nnc21 [Example 48]
Result Number: 7.32

Molecule: Cc1nnc2n1-c1sc3c(c1C(c1c(F)cccc1F)=N[C@H]2C)CCCCC3 [Example 2]
Result Number: 8.13

Molecule: Cc1nnc2n1-c1sc3c(c1C(c1c(F)cccc1F)=NC2)CCCCC3 [Example 1]
Result Number: 8.12

Molecule: Cc1cn2c(nc1=O)[C@H](C)N=C(c1c(F)cccc1F)c1c-2sc2c1CCCCC2 [Example 26]
Result Number: 7.49

Molecule: C[C@@H]1N=C(c2c(F)cccc2F)c2c(sc3c2COCCO3)-n2nc(C(=O)N3CCC3)nc21 [Example 22]
Result Number: 8.00

Molecule: Cc1nnc2n1-c1sc3c(c1C(c1c(F)cccc1F)=N[C@H]2C)CCC(F)C(F)C3 (single isomer, unassigned) [Example 34]
Result Number: 7.50

Molecule: Cc1nnc2n1-c1sc3c(c1C(c1c(F)cccc1F)=N[C@H]2C)COCCO3 [Example 21]
Result Number: 7.69

Molecule: Cc1nnc2n1-c1sc3c(c1C(c1c(F)cccc1F)=N[C@H]2C)CCC[C@@H](F)C3 (single isomer, unassigned) [Example 16]
Result Number: 7.05

Molecule: C[C@@H]1N=C(c2c(F)cccc2F)c2c(sc3c2COCCC3)-n2nc(C(=O)N[C@H]3C[C@@H](O)C3)nc21 [Example 64]
Result Number: 7.25

Molecule: C[C@@H]1N=C(c2c(F)cccc2F)c2c(sc3c2CCCCC3)-n2c1n[nH]c2=O [Example 6]
Result Number: 7.43

Molecule: C[C@@H]1N=C(c2c(F)cccc2F)c2c(sc3c2COCCC3)-n2nc(C(=O)NC[C@](C)(O)C(F)(F)F)nc21 [Example 69]
Result Number: 7.21

Molecule: C[C@@H]1N=C(c2c(F)cccc2F)c2c(sc3c2COCCO3)-n2nc(C(=O)N3CC(F)C3)nc21 [Example 24]
Result Number: 8.42
